The origin of these recorded values is ChEMBL document CHEMBL3046363.

Test system: Tetranychus cinnabarinus
Assay: In vivo insecticidal activity against Tetranychus cinnabarinus (carmine spider mite) assessed as mortality at 500 ug/ml after 72 hr
Format: functional
// reported mortality at 500 µg/mL for each item listed

Worked examples follow.
molecule="CO/C=C(/C(=O)OC)c1ccccc1COc1cccc(C2=NN(C(C)=O)C(c3ccc4c(c3)OCO4)C2)c1 (stereo not given)" assay_readout="mortality at 500 µg/mL" data_value="< 60%"
molecule="CO/C=C(/C(=O)OC)c1ccccc1COc1cccc(C2=NN(C(C)=O)C(c3ccc(C)cc3)C2)c1 (stereo not given)" assay_readout="mortality at 500 µg/mL" data_value="< 60%"
molecule="CO/C=C(/C(=O)OC)c1ccccc1COc1cccc(C2=NN(C(C)=O)C(c3ccc(C(C)(C)C)cc3)C2)c1 (stereo not given)" assay_readout="mortality at 500 µg/mL" data_value="≥ 90%"
molecule="CO/C=C(/C(=O)OC)c1ccccc1COc1cccc(C2=NN(C(C)=O)C(c3ccc(Cl)cc3)C2)c1 (stereo not given)" assay_readout="mortality at 500 µg/mL" data_value="< 60%"

Here is another molecule to look at.
mortality at 500 µg/mL recorded for this molecule, CCc1ccc(C2CC(c3ccccc3OCc3ccccc3/C(=C\OC)C(=O)OC)=NN2C(C)=O)cc1 (stereo not given) , is < 60%

---

Test system: Botrytis cinerea
Assay: In vivo fungicidal activity against Botryotinia fuckeliana infected in cucumber plants assessed as inhibition of disease symptoms at 200 ug/ml treated one day prior to fungal spore inoculation measured after one week
Format: functional, organism-based
Active and inactive are the calls of the source. The rule behind the calls is not given here.
Assay readout: inhibition

Worked examples follow.
compound="CO/C=C(/C(=O)OC)c1ccccc1COc1cccc(C2=NN(C(C)=O)C(c3ccc(C(C)(C)C)cc3)C2)c1 (stereo not drawn)" data_value=inactive
compound="CO/C=C(/C(=O)OC)c1ccccc1COc1ccccc1C1=NN(C(C)=O)C(c2cccc(OC)c2)C1 (stereo not drawn)" data_value=inactive
compound="CO/C=C(/C(=O)OC)c1ccccc1COc1ccc(C2=NN(C(C)=O)C(c3ccc(OC)cc3)C2)cc1 (stereo not drawn)" data_value=inactive
compound="CO/C=C(/C(=O)OC)c1ccccc1COc1ccccc1C1=NN(C(C)=O)C(c2ccc(OC)c(OC)c2)C1 (stereo not drawn)" data_value=inactive

inhibition recorded for this compound, CO/C=C(/C(=O)OC)c1ccccc1COc1cccc(C2=NN(C(C)=O)C(c3cc(OC)c(OC)c(OC)c3)C2)c1 (stereo not drawn) , is inactive

inhibition recorded for this compound, CO/C=C(/C(=O)OC)c1ccccc1COc1ccccc1C1=NN(C(C)=O)C(c2ccc(Cl)c(Cl)c2)C1 (stereo not drawn) , is inactive

inhibition recorded for this compound, CO/C=C(/C(=O)OC)c1ccccc1COc1ccc(C2=NN(C(C)=O)C(c3cccc(F)c3)C2)cc1 (stereo not drawn) , is inactive

inhibition recorded for this compound, CCc1ccc(C2CC(c3ccc(OCc4ccccc4/C(=C\OC)C(=O)OC)cc3)=NN2C(C)=O)cc1 (stereo not drawn) , is inactive
